# systemTested: Nuclear receptor subfamily 1 group I member 2 (Homo sapiens)
# Sequence (O75469 whole entry): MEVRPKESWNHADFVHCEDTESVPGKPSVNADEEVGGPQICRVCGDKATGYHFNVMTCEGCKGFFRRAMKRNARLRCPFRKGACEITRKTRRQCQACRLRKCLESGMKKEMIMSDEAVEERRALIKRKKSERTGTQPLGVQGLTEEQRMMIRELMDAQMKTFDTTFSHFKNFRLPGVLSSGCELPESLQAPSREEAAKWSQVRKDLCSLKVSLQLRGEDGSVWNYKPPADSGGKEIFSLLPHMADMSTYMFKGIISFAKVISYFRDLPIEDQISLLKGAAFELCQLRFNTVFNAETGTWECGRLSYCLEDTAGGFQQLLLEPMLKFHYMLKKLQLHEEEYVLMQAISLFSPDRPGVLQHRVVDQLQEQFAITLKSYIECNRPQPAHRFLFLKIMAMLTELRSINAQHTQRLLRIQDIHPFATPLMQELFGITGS
# assayInfo: Transactivation of PXR (unknown origin) expressed in human HepG2 cells
# Assay type: cell-based
experimentalEndpoint: EC50 (µM)

INSERT INTO assay_data (molecule, measureunit, comparisonsymbol, testvalue) VALUES
  ('O=C(O)[C@H]1CC[C@](F)(C(=O)N2CC[C@](c3ccc(C(F)(C(F)(F)F)C(F)(F)F)cc3)(S(=O)(=O)c3ccc(F)cc3)C2)CC1', 'µM', '=', 10.6),
  ('CCC1(C(=O)N2CC[C@](c3ccc(C(F)(C(F)(F)F)C(F)(F)F)cc3)(S(=O)(=O)c3ccc(F)cc3)C2)CCS(=O)(=O)CC1', 'µM', '=', 5.2),
  ('CO[C@]1(C(=O)N2CC[C@](c3ccc(C(F)(C(F)(F)F)C(F)(F)F)cc3)(S(=O)(=O)c3ccc(F)cc3)C2)CC[C@H](C(=O)O)CC1', 'µM', '>', 18),
  ('O=C(O)[C@@H]1C[C@@H]2[C@H](C1)[C@H]2C(=O)N1CC[C@](c2ccc(C(F)(C(F)(F)F)C(F)(F)F)cc2)(S(=O)(=O)c2ccc(F)cc2)C1', 'µM', '>', 33),
  ('CS(=O)(=O)C1CCC(C(=O)N2CC[C@](c3ccc(C(F)(C(F)(F)F)C(F)(F)F)cc3)(S(=O)(=O)c3ccc(F)cc3)C2)CC1 (stereo in doubt; 28)', 'µM', '=', 1.8),
  ('CS(=O)(=O)C1CCC(C(=O)N2CC[C@](c3ccc(C(F)(C(F)(F)F)C(F)(F)F)cc3)(S(=O)(=O)c3ccc(F)cc3)C2)CC1 (stereo in doubt; 29)', 'µM', '>', 50);

* * *

# assayInfo: Stability in human liver microsomes assessed as parent compound remaining after 10 mins
# Assay type: ADME, Microsome
# experimentalSetup: liver microsomes, read-out: Stability
experimentalEndpoint: remaining at 10 min (%)

INSERT INTO results (compound, testvalue) VALUES
  ('CCC1(C(=O)N2CC[C@](c3ccc(C(F)(C(F)(F)F)C(F)(F)F)cc3)(S(=O)(=O)c3ccc(F)cc3)C2)CCS(=O)(=O)CC1', 3),
  ('O=C(O)C1CCC(O)(C(=O)N2CC[C@](c3ccc(C(F)(C(F)(F)F)C(F)(F)F)cc3)(S(=O)(=O)c3ccc(F)cc3)C2)CC1 (stereo in doubt; 12)', 100),
  ('C[C@]1(C(=O)N2CC[C@](c3ccc(C(F)(C(F)(F)F)C(F)(F)F)cc3)(S(=O)(=O)c3ccc(F)cc3)C2)CC[C@H](C(=O)O)CC1', 80),
  ('O=C(C1CCS(=O)(=O)CC1)N1CC[C@](c2ccc(C(F)(C(F)(F)F)C(F)(F)F)cc2)(S(=O)(=O)c2ccc(F)cc2)C1', 93),
  ('O=C(C1CCS(=O)(=O)C1)N1CC[C@](c2ccc(C(F)(C(F)(F)F)C(F)(F)F)cc2)(S(=O)(=O)c2ccc(F)cc2)C1 (stereo in doubt; 32)', 100),
  ('O=C(O)C12CCC(C(=O)N3CC[C@](c4ccc(C(F)(C(F)(F)F)C(F)(F)F)cc4)(S(=O)(=O)c4ccc(F)cc4)C3)(CC1)OC2', 90),
  ('O=C(O)[C@@H]1[C@@H]2C[C@@H](C(=O)N3CC[C@](c4ccc(C(F)(C(F)(F)F)C(F)(F)F)cc4)(S(=O)(=O)c4ccc(F)cc4)C3)C[C@@H]21', 100),
  ('O=C1NC(=O)C2(CCC(C(=O)N3CC[C@](c4ccc(C(F)(C(F)(F)F)C(F)(F)F)cc4)(S(=O)(=O)c4ccc(F)cc4)C3)CC2)N1 (stereo in doubt; 24)', 84),
  ('NC(=O)[C@H]1CC[C@H](C(=O)N2CC[C@](c3ccc(C(F)(C(F)(F)F)C(F)(F)F)cc3)(S(=O)(=O)c3ccc(F)cc3)C2)CC1', 100),
  ('O=C([C@H]1CC[C@H](O)CC1)N1CC[C@](c2ccc(C(F)(C(F)(F)F)C(F)(F)F)cc2)(S(=O)(=O)c2ccc(F)cc2)C1', 86),
  ('CS(=O)(=O)C1CCC(C(=O)N2CC[C@](c3ccc(C(F)(C(F)(F)F)C(F)(F)F)cc3)(S(=O)(=O)c3ccc(F)cc3)C2)CC1 (stereo in doubt; 28)', 88),
  ('CC[C@]1(C(=O)N2CC[C@](c3ccc(C(F)(C(F)(F)F)C(F)(F)F)cc3)(S(=O)(=O)c3ccc(F)cc3)C2)CC[C@H](C(=O)O)CC1', 89),
  ('C[C@]1(C(=O)O)CC[C@H](C(=O)N2CC[C@](c3ccc(C(F)(C(F)(F)F)C(F)(F)F)cc3)(S(=O)(=O)c3ccc(F)cc3)C2)CC1', 97);
